Provenance of the data: ChEMBL document CHEMBL4118073

biological target: alpha1 adrenoceptor (Mus musculus, UniProt P97714+P97717+P97718); test: Displacement of [3H]prazosin from alpha1 adrenoceptor in C57BL/6 mouse hippocampal homogenates assessed as remaining receptor bound [3H]prazosin levels at 30 uM after 40 mins by liquid scintillation counting method relative to control; conditions: probe [3H]prazosin, read-out: Activity
readout: activity at 40 min, 30 µM (%)

a: CCN1/C(=C/c2ccc3cc(I)ccc3[n+]2CC)C=Cc2ccccc21.[I-]
b: CCN1/C(=C/c2ccc3ccccc3[n+]2CC)C=Cc2ccccc21.[I-]
Of a and b , which shows the smaller activity at 40 min, 30 µM value? Refer to your chosen item by its label in the answer.
b

----------
biological target: alpha1 adrenoceptor (Mus musculus, UniProt P97714+P97717+P97718); assay: Displacement of [3H]prazosin from alpha1 adrenoceptor in C57BL/6 mouse hippocampal homogenates assessed as remaining receptor bound [3H]prazosin levels at 0.3 uM after 40 mins by liquid scintillation counting method relative to control; settings: probe [3H]prazosin, read-out: Activity
readout: activity at 40 min, 0.3 µM (%)

I: CCN1/C(=C/c2ccc3ccccc3[n+]2CC)C=Cc2ccccc21.[I-]
II: CCN1/C(=C/c2ccc3cc(I)ccc3[n+]2CC)C=Cc2ccccc21.[I-]
Param pair: I , II . Output: the one whose activity at 40 min, 0.3 µM is numerically greater. Choose, then provide that item's label.
II
(II: 94%, I: 8%)

----------
test system: Mus musculus; assay: Anti-depressant-like activity in mouse assessed as time spent immobile at 1 mg/kg, ip administered 60 mins prior to testing measured for 6 mins by tail suspension test (reference value: 186.9 +/- 13.2 secs); type: functional
readout: Time (s)
Please respond with the number in s and leave the unit unwritten.

Given the molecule CCN1/C(=C/c2ccc3cc(F)ccc3[n+]2CC)C=Cc2ccccc21.[I-] , what is its reported Time?
198.1

What measured Time goes with CN1/C(=C\c2cc[n+](C)c3ccccc23)C=Cc2ccccc21.O=C([O-])C(F)(F)F ?
165.3

Request the reported Time associated with CCN1/C(=C/c2ccc3cc(I)ccc3[n+]2CC)C=Cc2ccccc21.[I-]
184.5

// query Time value for entry CCN1/C(=C/c2ccc3cc(Cl)ccc3[n+]2CC)C=Cc2ccccc21.[I-]
189.3

Recorded Time of CCN1/C(=C/c2ccc3ccccc3[n+]2CC)C=Cc2ccccc21.[I-] , please.
185.8

----------
target: alpha1 adrenoceptor (Mus musculus, UniProt P97714+P97717+P97718); assay: Displacement of [3H]prazosin from alpha1 adrenoceptor in C57BL/6 mouse hippocampal homogenates assessed as remaining receptor bound [3H]prazosin levels at 3 uM after 40 mins by liquid scintillation counting method relative to control; settings: probe [3H]prazosin, read-out: Activity
readout: activity at 40 min, 3 µM (%)
Quick reminder: number only, in %, skip the unit.

Entry CCN1/C(=C/c2ccc3cc(I)ccc3[n+]2CC)C=Cc2ccccc21.[I-] : reported activity at 40 min, 3 µM = ?
52

----------
molecular target: alpha1 adrenoceptor (Mus musculus, UniProt P97714+P97717+P97718); assay: Displacement of [3H]prazosin from alpha1 adrenoceptor in C57BL/6 mouse hippocampal homogenates assessed as remaining receptor bound [3H]prazosin levels at 0.001 uM after 40 mins by liquid scintillation counting method relative to control; conditions: probe [3H]prazosin, read-out: Activity
readout: activity at 40 min, 0.001 µM (%)

smiles_record=Cc1ccnc2ccccc12 readout="activity at 40 min, 0.001 µM" recorded_number=100
smiles_record=CC(C)[n+]1ccc(/C=C2/C=Cc3ccccc3N2C)c2ccccc21.O=C([O-])C(F)(F)F readout="activity at 40 min, 0.001 µM" recorded_number=100
smiles_record=CCN1/C(=C/c2ccc3cc(OC)ccc3[n+]2CC)C=Cc2ccccc21.[I-] readout="activity at 40 min, 0.001 µM" recorded_number=100
smiles_record=CCN1/C(=C/c2ccc3ccccc3[n+]2CC)C=Cc2ccccc21.[I-] readout="activity at 40 min, 0.001 µM" recorded_number=92.8
smiles_record=CCN1/C(=C/c2ccc3cc(Br)ccc3[n+]2CC)C=Cc2ccccc21.[I-] readout="activity at 40 min, 0.001 µM" recorded_number=100
smiles_record=CCN1/C(=C/c2ccc3cc(I)ccc3[n+]2CC)C=Cc2ccccc21.[I-] readout="activity at 40 min, 0.001 µM" recorded_number=111
